Measured Percent Effect, listed per entry for reference.
- Tested on: Mycobacterium tuberculosis
- ASSAY_INFO: Cornell M. t heat shock assay; also: in the data most compounds retested in dose-response had high values
- Type: functional, organism-based
- Parameters: dose or concentration left out as unconfirmed
Screen size: about 69,000 compounds; about 950 (1.4%) showed an effect of 50% or more. Shown is part of a subset that was picked to be rich in strong results.
Reply with just the number (in %).

Reference set (10 entries):
* CCCc1nc(N2CCN(CC)CC2)c2c(n1)c(C)nn2CC | -31.53
* O=C(c1cc(COc2ccc3c(c2)OCO3)[nH]n1)N1CCCC1 | 27.84
* O=C(O)C(F)(F)F.c1cc(CN2CCO[C@H]3[C@H](OCC4CCOCC4)CC[C@@H]32)co1 | 4.016
* Cc1sc2nc(CCN)nc(N3CCN(S(C)(=O)=O)CC3)c2c1C | 12.46
* c1ccc(OCCNCc2cccs2)nc1 | -4.17
* CCCn1cc(NC(=O)c2cccc(CN3CC=CC3)c2)nn1 | -7.923
* Cn1cc(CN2C[C@H]3CCC[C@@]3(COc3ccccn3)C2)cn1.O=C(O)C(F)(F)F.O=C(O)C(F)(F)F | -2.585
* Cc1cnc(C(=O)N2CCC3(CCN3Cc3ccc(F)cc3)C2)cn1.O=C(O)C(F)(F)F (stereo not drawn) | -3.427
* Cc1ccnc(NCCSc2nccn2C)n1 | 9.062
* COCCn1cnnc1CNc1cc(C)nc2c(C)c(C)nn12 | 44.3

Could you tell me which Percent Effect is on file for CN1Cc2cnn(CC3CCCC3)c2C(COCC2CC2)C1.O=C(O)C(F)(F)F.O=C(O)C(F)(F)F (stereo not drawn) ? -36.29

Do the same for `COc1cccc(CC(=O)N2CC[C@@H](OC)[C@@H]2Cc2cccnc2)c1.O=C(O)C(F)(F)F` please 11.27

Do the same for `CCCn1cc(NC(=O)c2cccc(CN3CC[C@H](O)C3)c2)nn1` please 18.76

Do the same for `O=C(NC1CCCC1)c1nc2c(o1)CN(CCO)C2` please 51.46

Do the same for `CCn1cc(NC(=O)c2cccc(CN3C[C@@H](C)O[C@@H](C)C3)c2)nn1` please 87.48

Do the same for `O=C(NC1CCCC1)c1nc2c(o1)CN(C(=O)CCO)C2` please 6.229

Do the same for `Cc1cc(NCc2nnc3n2CCC3)n2nc(C)c(C)c2n1` please -14.51

Do the same for `CC(=O)Nc1ccc(CN2C[C@H]3CC[C@@H]2CN(c2ncccn2)C3)cc1` please 8.779

###

- System: Mycobacterium tuberculosis
- ASSAY_INFO: Cornell M. t heat shock assay; also: in the data most compounds retested in dose-response had high values
- Type: functional, organism-based
- Set-up: dose or concentration left out as unconfirmed
About 950 (1.4%) of roughly 69,000 compounds showed an effect of 50% or more. The full list was thinned out, with strong results kept by preference.
Measured Percent Effect, listed per entry for reference.
Record the result as a number with its unit.

Reference set (3 entries):
* CCCc1nn(Cc2ccc(Br)s2)c(=O)o1 | 31%
* CCn1cncc1CN(Cc1ccc(OC)cc1OC)CC1CCCO1.O=C(O)CC(O)(CC(=O)O)C(=O)O (stereo not drawn) | -14.56%
* Cc1nc(CN2C(=O)C[C@@H]3[C@@H]2CCN3CC2CCOCC2)cs1.O=C(O)C(F)(F)F | -14.82%

Could you tell me which Percent Effect is on file for Cc1cc(N(C)C)nc(C2CCCN2)n1.Cl.Cl (stereo not drawn) ? -13.2%

Do the same for COc1ncc(CN2CCCC(c3[nH]ncc3S(C)(=O)=O)C2)cn1 (stereo not drawn) please -20.65%

Do the same for `Cl.N#Cc1cccnc1OC1CCNCC1` please -9.035%

Do the same for `CC(C)CN1CCN(C)C2(CCN(Cc3ccsc3)CC2)C1=O.O=C(O)C(F)(F)F.O=C(O)C(F)(F)F` please -18.88%

Do the same for CC1CN(C)CCN1C(=O)c1cnc2c(cnn2C2CCCC2)c1 (stereo not drawn) please -19.82%
